Cited source for all entries: patent US8859584B2

Target: human TRPV1 (Homo sapiens, UniProt Q8NER1)
Construct: expressed in transfected cells
Sequence (Q8NER1 whole entry): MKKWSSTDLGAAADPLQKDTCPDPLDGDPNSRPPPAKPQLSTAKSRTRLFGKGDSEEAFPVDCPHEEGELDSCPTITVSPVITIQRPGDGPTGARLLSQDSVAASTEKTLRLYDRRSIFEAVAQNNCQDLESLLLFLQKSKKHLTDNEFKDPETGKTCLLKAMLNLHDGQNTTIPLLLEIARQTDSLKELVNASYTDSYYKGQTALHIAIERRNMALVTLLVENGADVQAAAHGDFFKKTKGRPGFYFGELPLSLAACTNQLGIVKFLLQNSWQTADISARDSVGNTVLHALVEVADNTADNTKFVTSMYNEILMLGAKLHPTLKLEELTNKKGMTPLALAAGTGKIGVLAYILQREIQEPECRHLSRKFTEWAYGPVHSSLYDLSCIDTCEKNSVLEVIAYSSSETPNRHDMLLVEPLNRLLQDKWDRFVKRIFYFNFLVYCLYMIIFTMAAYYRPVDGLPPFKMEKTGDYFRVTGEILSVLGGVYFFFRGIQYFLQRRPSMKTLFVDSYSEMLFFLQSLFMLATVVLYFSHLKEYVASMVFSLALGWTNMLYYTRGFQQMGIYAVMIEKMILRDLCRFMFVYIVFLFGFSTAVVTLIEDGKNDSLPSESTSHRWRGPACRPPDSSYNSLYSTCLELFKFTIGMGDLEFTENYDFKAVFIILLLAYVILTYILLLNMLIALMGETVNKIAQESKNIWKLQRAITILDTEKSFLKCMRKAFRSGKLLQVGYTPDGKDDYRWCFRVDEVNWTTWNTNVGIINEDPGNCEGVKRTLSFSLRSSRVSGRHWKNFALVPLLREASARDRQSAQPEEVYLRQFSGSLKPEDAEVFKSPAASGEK
Experiment: Capsaicin Activation Assay (FLIPR intracellular Ca2+, recombinant HEK293 cells)
Assay type: cell-based
Details: recombinant HEK293 cells expressing hTRPV1; 50 nM capsaicin; read-out: human TRPV1 capsaicin IC50
Method: (i) Capsaicin Activation Assay Dulbecco's modified Eagle medium (DMEM) (with 4.5 mg/mL glucose) and fetal bovine serum were obtained from Hyclone Laboratories, Inc. (Logan, Utah). […] The functional activity of compounds at the TRPV1 receptor was determined by measurement of intracellular Ca^2+ levels ([Ca^2+]i) using the Fluorescence Imaging Plate Reader (FLIPR)TETRA®. […] Fluorescence readings were made at 1 to 5 second intervals over the course of the experimental run. […]
property name: IC50 (nM)
Give the number; nM is assumed, so skip it.

Report IC50 for CC1(C)C[C@@H](NC(=O)Nc2cccc3c2C[C@H](O)C3)c2ccc(OC(F)(F)F)cc2O1 tested on human TRPV1 (Homo sapiens, UniProt Q8NER1). 42

Form field: IC50 recorded for O=C(Nc1cccc2c1CC(O)C2)NC1CC2(CCCCC2)Oc2ccccc21 (stereo not shown) with human TRPV1 (Homo sapiens, UniProt Q8NER1) (enter value) 140

What value of IC50 on human TRPV1 (Homo sapiens, UniProt Q8NER1) does CC1(C)C[C@@H](NC(=O)Nc2cccc3c2C[C@@H](O)C3)c2cccc(C(F)(F)F)c2O1 have? 12

Provide the documented IC50 with human TRPV1 (Homo sapiens, UniProt Q8NER1) as the system for CC1(C)C[C@@H](NC(=O)Nc2cccc3c2C[C@H](O)C3)c2ccc(Cl)cc2O1 28
